Sourced from paper PMC7488503

# test-description: Pharmacokinetic study in rats
# Assay type: in vivo
# setup-conditions: both, Sprague-Dawley, rat, plasma, po, 50 mg/kg
endpoint-label: AUC(0-inf) (µM·h)
Answers are plain numbers, in µM·h.

Which AUC(0-inf) value is on record for COc1cc2nccc(Oc3ccc(NC(=S)NC4CC4)c(Cl)c3F)c2cc1C(N)=O ?
110

----------
# test-description: Pharmacokinetic study in rats
# Format: in vivo
# setup-conditions: both, Sprague-Dawley, rat, plasma, po, 50 mg/kg/day
endpoint-label: half-life at 7 days (h)
Numbers only, in h.

Which half-life at 7 days value is on record for COc1cc2nccc(Oc3ccc(NC(=S)NC4CC4)c(Cl)c3F)c2cc1C(N)=O ?
2.17
